Target: MAT2A (Homo sapiens (Human), UniProt P31153)
Sequence (P31153 whole entry): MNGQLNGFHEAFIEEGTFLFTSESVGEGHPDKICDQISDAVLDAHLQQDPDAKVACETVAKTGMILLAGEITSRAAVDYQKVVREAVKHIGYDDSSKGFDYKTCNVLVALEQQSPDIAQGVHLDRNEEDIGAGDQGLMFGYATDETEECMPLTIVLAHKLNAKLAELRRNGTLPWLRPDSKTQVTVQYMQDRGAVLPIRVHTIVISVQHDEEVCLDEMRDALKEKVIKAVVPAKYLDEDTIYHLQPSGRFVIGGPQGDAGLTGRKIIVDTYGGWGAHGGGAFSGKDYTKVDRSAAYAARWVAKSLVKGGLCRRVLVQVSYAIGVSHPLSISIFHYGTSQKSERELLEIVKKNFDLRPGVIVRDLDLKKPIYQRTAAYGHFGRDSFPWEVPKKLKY
Test: MAT2A biochemical test (inorganic phosphate colorimetric, PiColorLock)
Conditions: class symbols; read-out: MAT2A inhibitory Activity IC50
pIC50: −log10 of the molar value.
# pIC50 per record follows

Cn1cnc2c(=O)n(-c3cccc(C#N)c3Cl)c3nc(C(F)(F)F)ccc3c21 (single isomer, unassigned) [Compound 73-P2] ... > 7.00
Cc1ccccc1-n1c(=O)c2ncn(C)c2c2ccc(C(F)(F)F)nc21 ... 6.30 to 7.00
Cc1ncccc1-n1c(=O)c2ncn(C)c2c2ccc(C(F)(F)F)cc21 ... > 7.00
Cn1cnc2c(=O)n(-c3cncnc3)c3nc(C(F)(F)F)ccc3c21 ... 6.30 to 7.00
O=c1c2ncoc2c2ccc(C(F)(F)F)nc2n1-c1ccccc1Cl ... > 7.00
Cc1c(F)cccc1-n1c(=O)c2ncn(C)c2c2ccc(C(F)(F)F)nc21 (single isomer, unassigned) [Compound 43-P2] ... > 7.00
Cn1cc2c(n1)c(=O)n(-c1ccc(OC(F)F)cc1)c1nc(C(F)(F)F)ccc21 ... 6.30 to 7.00

Query: Quick check: pIC50 of Cn1cnc2c(=O)n(-c3cccc(F)c3Cl)c3nc(C(F)(F)F)ccc3c21 (single isomer, unassigned) [Compound 25-P2] ?
Result: > 7.00

---

Molecular target: MAT2A (Homo sapiens (Human))
Assay: MAT2A biochemical test (inorganic phosphate colorimetric, PiColorLock)
Conditions: class symbols; read-out: MAT2A inhibitory Activity IC50
readout_type: IC50

O=c1c2[nH]ncc2c2ccc(C(F)(F)F)nc2n1-c1ccccc1Cl [Compound 6] ... < 100 nM

Query: Observed IC50 on MAT2A (Homo sapiens (Human)) for Cn1cnc2c(=O)n(-c3cccnc3)c3nc(C(F)(F)F)ccc3c21 [Compound 64] , please.
Result: < 100 nM

Query: Now the molecule Cc1ncccc1-n1c(=O)c2ncn(C)c2c2ccc(Cl)cc21 (single isomer, unassigned) [Compound 46-P2]
Result: < 100 nM

Query: Now the same for CCOc1ccc2c3[nH]c(OC)nc3c(=O)n(-c3ccc(OC(F)F)cc3)c2n1 [Compound 11]
Result: < 100 nM

Query: Another molecule to check: CN(C)CCn1cnc2c(=O)n(-c3ccccc3Cl)c3nc(C(F)(F)F)ccc3c21 [Compound 53]
Result: 100 to 500 nM

Query: # repeat for O=c1c2ocnc2c2ccc(C(F)(F)F)nc2n1-c1ccccc1Cl [Compound 51]
Result: 100 to 500 nM

Query: Cool, now Cc1ncccc1-n1c(=O)c2ncn(C)c2c2ccc(Cl)cc21 (atropisomer, axis not shown) [Compound 46]
Result: < 100 nM

Query: Try Cn1cnc2c(=O)n(-c3ccc(OC(F)F)c(F)c3)c3nc(C(F)(F)F)ccc3c21 [Compound 71] next.
Result: 500 to 1000 nM

Query: How about this molecule: Cn1cnc2c(=O)n(-c3cccc(F)c3Cl)c3nc(C(F)(F)F)ccc3c21 (atropisomer, axis not shown) [Compound 25]
Result: < 100 nM

Query: Query Cn1cnc2c(=O)n(-c3cccnc3C(F)(F)F)c3cc(Cl)ccc3c21 (single isomer, unassigned) [Compound 47-P2] next
Result: < 100 nM

Query: Try this molecule too: Cn1cnc2c(=O)n(-c3ccc(OC(F)F)cn3)c3nc(C(F)(F)F)ccc3c21 [Compound 69]
Result: 100 to 500 nM

---

Target: MAT2A (Homo sapiens (Human))
Experiment: MAT2A biochemical test (inorganic phosphate colorimetric, PiColorLock)
Details: class symbols; read-out: MAT2A inhibitory Activity IC50
pIC50: −log10 of the molar value.
Parameter pIC50: see the listing below.

Query: Observed pIC50 on MAT2A (Homo sapiens (Human)) for Cn1cnc2c(=O)n(-c3cccc(Cl)c3Cl)c3nc(C(F)(F)F)ccc3c21 [Compound 37] , please.
Result: > 7.00

---

bioavailability overview
Test: Pharmacokinetics in Balb/c Nude mice
Format: in vivo
Details: female, Balb/c Nude, mouse, plasma; PO 1 mg/kg, vehicle 5% NMP + 10% Solutol HS 15 + 85% water, vs IV 1 mg/kg

Illustrative cases are given below, each with its answer.
Cn1cnc2c(=O)n(-c3cccnc3C3CC3)c3nc(C(F)(F)F)ccc3c21 (single isomer, unassigned) [Compound 42-P2] ... ~100%
Cn1cnc2c(=O)n(-c3cccnc3C3CC3)c3cc(C(F)(F)F)ccc3c21 (single isomer, unassigned) [Compound 48-P2] ... ~100%
Cn1cnc2c(=O)n(-c3cccnc3C3CC3)c3cc(Cl)ccc3c21 (single isomer, unassigned) [Compound 49-P2] ... 89.6%
Cn1cnc2c(=O)n(-c3cccnc3C(F)(F)F)c3nc(C(F)(F)F)ccc3c21 (single isomer, unassigned) [Compound 41-P2] ... ~100%

Now look at this entry.
Query: Name the reported bioavailability value associated with the compound Cn1cnc2c(=O)n(-c3cccc(F)c3Cl)c3nc(C(F)(F)F)ccc3c21 (atropisomer, axis not shown)
Result: ~100%

---

Target: MAT2A (Homo sapiens (Human), UniProt P31153)
Test: MAT2A biochemical test (inorganic phosphate colorimetric, PiColorLock)
Settings: numeric values; read-out: MAT2A inhibitory Activity IC50
pIC50: −log10 of the molar value.
Decision: pIC50 compared against 7; not below it gives MET, below it gives NOT MET.

// known answers, use as guide
O=c1c2ncoc2c2ccc(C(F)(F)F)nc2n1-c1cccnc1C(F)(F)F (single isomer, unassigned) [Compound 86-P2] ... MET
O=c1c2ncoc2c2ccc(C(F)(F)F)nc2n1-c1cccnc1C1CC1 (atropisomer, axis not shown) [Compound 81] ... MET
COc1nc2c(=O)n(-c3ccccc3Cl)c3nc(C(F)(F)F)ccc3c2[nH]1 [Compound 5] ... MET

Moving on to the next compound.
Query: Say whether CNCCn1cnc2c(=O)n(-c3ccccc3Cl)c3nc(C(F)(F)F)ccc3c21 [Compound 54] shows pIC50 of 7 or more.
Result: NOT MET

---

Molecular target: UniProtKB P31153
Test: MAT2A biochemical test (inorganic phosphate colorimetric, PiColorLock)
Details: class symbols; read-out: MAT2A inhibitory Activity IC50
# maps each entry to its IC50

Completed entries (count: 10):
COc1ccccc1-n1c(=O)c2ncn(C)c2c2ccc(C(F)(F)F)nc21 ... < 0.1 µM
Cn1cnc2c(=O)n(-c3cccnc3C(F)(F)F)c3cc(Cl)ccc3c21 (atropisomer, axis not shown) [Compound 47] ... < 0.1 µM
Cn1cnc2c(=O)n(-c3cccnc3C3CC3)c3cc(Cl)ccc3c21 (atropisomer, axis not shown) [Compound 49] ... < 0.1 µM
Cn1cnc2c(=O)n(-c3cccc(F)c3Cl)c3cc(Cl)ccc3c21 ... < 0.1 µM
[2H]C([2H])([2H])n1cnc2c(=O)n(-c3cccc(F)c3Cl)c3nc(C(F)(F)F)ccc3c21 ... < 0.1 µM
O=c1c2nc(C(F)(F)F)[nH]c2c2ccc(C(F)(F)F)nc2n1-c1ccccc1Cl ... < 0.1 µM
CCOc1ccc2c3[nH]c(=O)[nH]c3c(=O)n(-c3ccc(OC(F)F)cc3)c2n1 ... < 0.1 µM
Cc1ccncc1-n1c(=O)c2ncn(C)c2c2ccc(C(F)(F)F)nc21 ... 0.1 to 0.5 µM
Cn1cnc2c(=O)n(-c3cccnc3C3CC3)c3cc(Cl)ccc3c21 (single isomer, unassigned) [Compound 49-P2] ... < 0.1 µM
Cn1cnc2c(=O)n(-c3ccc(OC(F)F)cc3)c3nc(C(F)(F)F)ccc3c21 ... < 0.1 µM

Query: What does the data say about its IC50? Entry: CC(C)c1ccccc1-n1c(=O)c2ncn(C)c2c2ccc(C(F)(F)F)nc21
Result: < 0.1 µM

Query: What do we get for COc1nc2c(=O)n(-c3ccccc3Cl)c3nc(C(F)(F)F)ccc3c2[nH]1 ?
Result: < 0.1 µM

Query: Follow-up item: Cn1cnc2c(=O)n(-c3ccc(F)cc3Cl)c3nc(C(F)(F)F)ccc3c21
Result: 0.1 to 0.5 µM

Query: Check COc1c(F)cccc1-n1c(=O)c2ncn(C)c2c2ccc(C(F)(F)F)nc21 (single isomer, unassigned) [Compound 70-P2] too.
Result: < 0.1 µM

Query: Next compound: O=c1c2cn[nH]c2c2ccc(C(F)(F)F)nc2n1-c1ccccc1Cl
Result: 0.1 to 0.5 µM

Query: Quick one: Cc1ncccc1-n1c(=O)c2ncn(C)c2c2ccc(C(F)(F)F)nc21 (single isomer, unassigned) [Compound 20-P1]
Result: < 0.1 µM

Query: Proceed to Cc1ncccc1-n1c(=O)c2ncn(C)c2c2ccc(C(F)(F)F)nc21 (atropisomer, axis not shown) [Compound 20]
Result: < 0.1 µM

---

Target: MAT2A (Homo sapiens (Human), UniProt P31153)
Assay: MAT2A biochemical test (inorganic phosphate colorimetric, PiColorLock)
Settings: class symbols; read-out: MAT2A inhibitory Activity IC50
pIC50: −log10 of the molar value.
readout_type: pIC50

Example entries begin here.
Cn1cnc2c(=O)n(-c3cccnc3C(F)(F)F)c3nc(C(F)(F)F)ccc3c21 (single isomer, unassigned) [Compound 41-P2] ... > 7.00
Cc1ccc2c3c(ncn3C)c(=O)n(-c3cccc(F)c3Cl)c2n1 ... > 7.00
Cc1ncccc1-n1c(=O)c2ncn(C)c2c2cnc(C(F)(F)F)nc21 ... > 7.00
Cc1ncccc1-n1c(=O)c2ncoc2c2ccc(Cl)cc21 (single isomer, unassigned) [Compound 83-P2] ... > 7.00
Cn1cnc2c(=O)n(-c3cccnc3C(F)(F)F)c3nc(C(F)(F)F)ccc3c21 (atropisomer, axis not shown) [Compound 41] ... > 7.00
Cn1cnc2c(=O)n(-c3ccccc3F)c3nc(C(F)(F)F)ccc3c21 ... > 7.00

Query: Bench note: what pIC50 did Cn1cnc2c(=O)n(-c3cccnc3C3CC3)c3nc(C(F)(F)F)ccc3c21 (atropisomer, axis not shown) [Compound 42] show?
Result: > 7.00

Query: Same question for O=c1c2ncoc2c2ccc(C(F)(F)F)nc2n1-c1cccnc1C1CC1 (single isomer, unassigned) [Compound 81-P2] please.
Result: > 7.00

Query: And then O=c1c2ncoc2c2ccc(C(F)(F)F)nc2n1-c1cccc(F)c1Cl , what is it?
Result: > 7.00

Query: And for Cn1cnc2c(=O)n(-c3ccc(OC(F)F)cc3Cl)c3nc(C(F)(F)F)ccc3c21 (single isomer, unassigned) [Compound 58-P2] ?
Result: > 7.00

Query: Now consider [2H]C([2H])([2H])n1cnc2c(=O)n(-c3cccnc3C)c3nc(C(F)(F)F)ccc3c21 .
Result: > 7.00

Query: Next up: Cc1ncccc1-n1c(=O)c2ncoc2c2ccc(Cl)cc21 [Compound 83]
Result: > 7.00

Recorded values, source patent US20240124454A1.
